Recorded protein stability index by entry
B1: ZNF449 (parent)
chain: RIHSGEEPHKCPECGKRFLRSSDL

- Variants of: B1
- assayExplanation: protein stability index of a GFP-peptide fusion (GPS, HEK-293T) (PSI 1-6); higher = more stable;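 also: lentivirally expressed fusions sorted by FACS into six bins by GFP to DsRed ratio, PSI derived from sequencing read proportions per bin multiplied by bin number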
- conditionNotes: c terminus: a fixed tail appended
# answer = number (no unit)

> print(dat)
   variantdescription  measurement
1                 I2G         2.78
2                 P8K         2.51
3                E13A         2.72
4                C14V         4.21

-- ask Field request: protein stability index | item: F18K
-- reply 4.33

-- ask Moving on to the next variant: H3L
-- reply 3.69

-- ask Moving on to the next variant: S22T
-- reply 3.05

-- ask Moving on to the next variant: R17Q
-- reply 3.63

-- ask Moving on to the next variant: D23P
-- reply 2.29

-- ask Moving on to the next variant: L19M
-- reply 4.05

Reference for the values: the supplement of paper PMC10567573
